Give measured growth for each item. Keep answers brief.
# Test system: COLO 205 colon
# assay-method-text: NCI-60 one-dose screen, 48 h (100 = growth as untreated, 0 = no growth, -100 = all killed)
# condition-summary: 10 µM unless noted
This is part of a sample that, as a whole, favours compounds with a hit. Of some 83,000 tested, about 20% had one in any assay.
Number only, in %; omit the unit.

Prompt line: Please report growth for the following compound: Cc1ccc(C(=O)Nc2ccc(CN3CCN(C)CC3)c(C(F)(F)F)c2)cc1C#Cc1cnc(N)c2ccccc12
Response line: -66.3

Prompt line: Please report growth for the following compound: CCNc1nc(-c2ccc(Cl)c(OC)c2)c(-c2ccnc(NCCNS(=O)(=O)c3ccc(Cl)cc3)n2)s1
Response line: 26.2

Prompt line: Please report growth for the following compound: CCOC(=O)C1=C(c2ccccc2)N=C2N(c3ccccc3)N=C(C(C)=O)N2C1c1ccc(Br)cc1 (stereo not drawn)
Response line: 124

Prompt line: Please report growth for the following compound: O=C(Nc1ccccc1CNc1nc(Nc2ccc(OCCN3CCCC3)cc2)ncc1Cl)NC1CCCCC1
Response line: 89.3

Prompt line: Please report growth for the following compound: CCOc1cc(\C=N/N=C(N)/C(N)=N\N=C/c2ccc(O)c(OCC)c2)ccc1O
Response line: 5.55

Prompt line: Please report growth for the following compound: CCOC(=O)/C=C1\S/C(=N\Nc2cc(=O)[nH]c3ccc(OC)cc23)N(c2ccccc2)C1=O
Response line: 95.7

Prompt line: Please report growth for the following compound: COc1nc2ccccc2cc1/C=[N+](\[O-])c1ccccc1
Response line: 108

Prompt line: Please report growth for the following compound: COC(=O)c1ccc(-n2cc(CCCOS(=O)(=O)c3ccc(F)cc3)nn2)cc1
Response line: 107

Prompt line: Please report growth for the following compound: COc1cc2c(c(OC)c1OC)C(=O)CC(c1cccc(C(=O)Nc3ccc(Br)cc3)c1)O2 (stereo not drawn)
Response line: 81.7

Prompt line: Please report growth for the following compound: COc1ccc(-c2cc(-c3ccc(Nc4nc(Nc5ccc(Cl)cc5)nc(Nc5ccc(Cl)cc5)n4)cc3)no2)cc1
Response line: 79.5

Prompt line: Please report growth for the following compound: Cn1cc(-c2nc(-c3c[nH]c4ccncc34)cs2)c2cc(F)ccc21
Response line: -74.1

Prompt line: Please report growth for the following compound: COc1ccc(/C(C)=C(\c2ccc(Cl)cc2)c2ccc(OCCCN(C)C)cc2)cc1
Response line: 15

Prompt line: Please report growth for the following compound: O=[N+]([O-])c1ccc(N/N=C\c2cc(Cl)ccc2O)nc1
Response line: 50.1

Prompt line: Please report growth for the following compound: COc1cc(C)cc(-c2c(-c3cc(N4CC(O)C4)nc(-c4cccnc4)n3)cnn2C)c1
Response line: 104

Prompt line: Please report growth for the following compound: CCn1c2ccccc2c2cc(C(O)c3cccc4ncccc34)ccc21 (stereo not drawn)
Response line: -33.9

Prompt line: Please report growth for the following compound: O=C(Nc1cccc(Cl)c1)Oc1c(Cl)c(Cl)c(Cl)c(Cl)c1Cl
Response line: 101

Prompt line: Please report growth for the following compound: CCN(CC)CCOc1ccc(/C(=C(\C)Cc2ccc(OC)cc2)c2ccc(O)cc2)cc1
Response line: -72.1

Prompt line: Please report growth for the following compound: Cc1ccccc1NC(=O)c1sc2nc3c(cc2c1N)CCCC3
Response line: 15.5

Prompt line: Please report growth for the following compound: O=C(OCC(O)(CO)C(=O)NC12CC3CC(CC(C3)C1)C2)c1ccc(Cl)cc1 (stereo not drawn)
Response line: 102

Prompt line: Please report growth for the following compound: Clc1ccc(C2=Nn3c(nnc3-c3cc(Cl)cc(Cl)c3Cl)SC2)cc1
Response line: 40.5

Prompt line: Please report growth for the following compound: CNC1=C(Br)C(=O)c2c(C(=O)OC)c(C)nc(C)c2C1=O
Response line: 30.9

Prompt line: Please report growth for the following compound: CN1/C(=C/C=C/c2n(Cc3ccc4ccccc4c3)c(Cl)c(Cl)[n+]2Cc2ccc3ccccc3c2)Oc2ccccc21
Response line: -80.1

Prompt line: Please report growth for the following compound: O=C1N/C(=N/N=C(c2ccccc2)c2ccccc2)S/C1=C\c1ccc(Br)cc1
Response line: 104

Prompt line: Please report growth for the following compound: Cn1cc(-c2ccc3occ(-c4cccc(-c5ccncc5)c4)c3n2)cn1
Response line: 14.7

Prompt line: Please report growth for the following compound: COc1cccc(NC(=O)c2sc3nc(C)c(C(=O)c4ccccc4)cc3c2N)c1
Response line: 107

Prompt line: Please report growth for the following compound: C#C[C@]1(O)CC[C@H]2[C@@H]3CC=C4c5sc(-c6cccc(C)c6)nc5CC[C@]4(C)[C@H]3CC[C@@]21C
Response line: 107

Prompt line: Please report growth for the following compound: COc1cc2c(cc1OC)CC[N+](CCC[N+](C)(C)C)=C2
Response line: 108

Prompt line: Please report growth for the following compound: O=C(/C=C\c1ccc(O)c(O)c1)c1ccccc1O
Response line: 80.6

Prompt line: Please report growth for the following compound: O=[N+]([O-])c1ccc(Oc2cccc3c(Oc4ccc([N+](=O)[O-])cc4[N+](=O)[O-])cccc23)c([N+](=O)[O-])c1
Response line: 102

Prompt line: Please report growth for the following compound: CN1CCN(Cc2ccc(NC(=O)c3cncc(C#Cc4c(N)ncc5c(F)cccc45)c3)cc2C(F)(F)F)CC1
Response line: -83.6

Prompt line: Please report growth for the following compound: CC(C)(C#N)c1cc(C(=O)Nc2cc(Nc3ncccc3-c3ncnc4nc[nH]c34)ccc2F)cc(C(F)(F)F)c1
Response line: 11.9

Prompt line: Please report growth for the following compound: O=C(CSc1nc(-c2ccccc2)cn1-c1ccc(Cl)cc1)c1ccc([N+](=O)[O-])cc1
Response line: 96.1

Prompt line: Please report growth for the following compound: COc1ccc(/C=N\NC(=O)c2ccc3nc(-c4ccc(Cl)cc4)[nH]c3c2)cc1
Response line: 22.9

Prompt line: Please report growth for the following compound: CC(=O)O[C@H]1CC[C@@]2(C)C(=CC[C@@H]3[C@@H]2CC[C@]2(C)C(Cl)=C(c4nc5ccc(Cl)cn5c4NC(C)(C)C)C[C@@H]32)C1
Response line: 103

Prompt line: Please report growth for the following compound: Cc1nc2sc(C(=O)Nc3ccccc3)c(N)c2cc1C(O)c1ccccc1 (stereo not drawn)
Response line: -8.82

Prompt line: Please report growth for the following compound: COC(=O)c1cc(-c2ccc(OC)c(OC)c2)[nH]c1N/N=C/c1c(Cl)cccc1Cl
Response line: 28

Prompt line: Please report growth for the following compound: CCCCCCCCNC(=O)[C@@H](N)CSCOC(C)=O
Response line: 109

Prompt line: Please report growth for the following compound: O=C1c2cccnc2C(=O)c2c1c(C(=O)OCCCN1CCOCC1)c1ccccn21
Response line: -75.8
